Cited source for all entries: patent US20230373985A1

# measured-target: wt human JAK1, catalytic site (Homo sapiens, UniProt P23458)
# Construct: wt human JAK1, catalytic site
# Sequence (P23458 875-1153 limits assumed): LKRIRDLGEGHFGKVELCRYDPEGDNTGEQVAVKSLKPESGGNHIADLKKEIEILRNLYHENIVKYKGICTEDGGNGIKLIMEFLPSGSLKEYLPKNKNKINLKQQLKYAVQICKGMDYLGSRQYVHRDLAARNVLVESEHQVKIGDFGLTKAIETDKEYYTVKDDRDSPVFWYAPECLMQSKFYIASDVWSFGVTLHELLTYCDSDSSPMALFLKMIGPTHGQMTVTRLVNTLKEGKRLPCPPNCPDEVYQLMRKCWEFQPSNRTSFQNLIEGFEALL
# assay-remarks: HTRF KinEASE assay, JAK1
# test-context: 2.5 μM ATP; read-out: IC50, Activity Toward JAK1

{"compound": "CCc1cccnc1-c1ccc(Nc2cn(-c3c(Cl)cccc3Cl)nc2C(N)=O)cc1 [compound 234]", "IC50": "100 to 1000 nM"}
{"compound": "N#Cc1cn(CCO)c(-c2ccc(Nc3cn(-c4c(Cl)cccc4Cl)nc3C(N)=O)cn2)n1 [compound 387]", "IC50": "10 to 100 nM"}
{"compound": "CN1CCN(C(=O)c2ccc(Nc3cn(-c4c(Cl)cccc4Cl)nc3C(N)=O)nc2)CC1 [compound 370]", "IC50": "100 to 1000 nM"}
{"compound": "NC(=O)c1nn(-c2c(Cl)cccc2Cl)nc1Nc1ccc(C(=O)N2CCOCC2)cn1 [compound 140]", "IC50": "100 to 1000 nM"}
{"compound": "NC(=O)c1nn(-c2c(Cl)cccc2Cl)cc1Nc1ccc(C(=O)N2CCCCC2)cc1 [compound 82]", "IC50": "10 to 100 nM"}
{"compound": "NC(=O)c1nn(-c2c(Cl)ccc(F)c2Cl)nc1Nc1ccc(C(=O)N2CCOCC2)cc1 [compound 138]", "IC50": "< 10 nM"}
{"compound": "Cc1cccc2nnc(-c3ccc(Nc4nn(-c5c(Cl)cccc5Cl)nc4C(N)=O)cn3)n12 [compound 139]", "IC50": "10 to 100 nM"}
{"compound": "NC(=O)c1nn(-c2c(Cl)cccc2Cl)cc1Nc1ccc(-n2ncnc2CO)cc1 [compound 348]", "IC50": "10 to 100 nM"}
